B1: Osa-1-4 twister ribozyme (parent)
chain: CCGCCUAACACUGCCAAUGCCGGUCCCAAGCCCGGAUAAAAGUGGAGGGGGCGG

variants of: B1; test: self-cleavage, relative activity (ratio to wild type); higher = more cleavage; co-transcriptional
Value Kind: self-cleavage
When you answer, write just the number.

// below: answered variants
{"columns": ["Variant Code", "self-cleavage"],
 "data": [
  ["A41G C33A", 0.07],
  ["A39U C27G", 0.09]
]}

// next item, self-cleavage requested
Task: Which self-cleavage value is on record for G23A G35A ?
Result: 0.14
